Ok so here's the combined literature set: IC50 for CK1δ (Homo sapiens (Human), UniProt P48730).
Test Readout: IC50 (nM)

Mol Smiles	Test Readout	Test Result
Cc1nc(-c2cccnc2)sc1C(=O)Nc1cn2nc(-c3c(-c4ccc(F)cc4)nn(C)c3C3CCOCC3)ccc2n1	IC50	0.3
Cn1cc(-c2ccc3nc(NC(=O)c4ccc(CCN5CCCC5)nc4)cn3n2)c(-c2ccc(F)cc2)n1	IC50	10
O=C(Nc1cn2nc(-c3cn(C4CC4)nc3-c3ccc(F)cc3)ccc2n1)c1ccncc1F	IC50	3.5

(A) O=C(Nc1cn2nc(-c3c(-c4ccc(F)cc4)nn4ccccc34)ccc2n1)c1cc(F)nc(F)c1
(B) O=C(Nc1cn2nc(-c3c(-c4ccc(F)cc4)nc4ccccn34)ccc2n1)c1csc(-c2ccncc2)n1
Query: In the pair A and B , the larger recorded IC50 belongs to which? // respond with label for picked entry
Result: A

###

Several reports have described pIC50 for CK1δ (Homo sapiens (Human)); a selection of those results is presented here.
pIC50: −log10 of the molar value.
Test Readout: pIC50

Mol Smiles	pIC50
O=C(Nc1cn2nc(-c3c(-c4ccc(F)cc4)nn4c3CCC4)ccc2n1)c1ccccc1	9.52
O=C(Nc1cn2nc(-c3c(-c4ccc(F)cc4)nc(C4CC4)n3C3CCNCC3)ccc2n1)c1ccnc(F)c1	8.92

(A) Cn1nc(-c2ccc(F)cc2)c(-c2ccc3nc(NC(=O)c4ccnc(F)c4)cn3n2)c1N1CCN(CCS(C)(=O)=O)CC1
(B) Cc1nc(-c2ccncc2)sc1C(=O)Nc1cn2nc(-c3cn(C4CC4)nc3-c3ccc(F)cc3)ccc2n1
(C) CC(C)NC(=O)N1CCn2c(nc(-c3ccc(F)cc3)c2-c2ccc3nc(NC(=O)c4ccnc(F)c4)cn3n2)C1
(D) O=C(Nc1cn2nc(-c3c(-c4ccc(F)cc4)ncn3C3CCN(C(=O)C4CCC4)CC3)ccc2n1)c1ccnc(F)c1
Query: Hey, can you sort those molecules up there by pIC50, smallest first? Write the labels, ordered according to the request.
Result: B, A, C, D
(B: 8.21, A: 8.54, C: 8.96, D: 9.71)

###

// compounds with IC50 on CK1δ (Homo sapiens (Human), UniProt P48730), multi-source literature
Sequence (P48730 whole entry): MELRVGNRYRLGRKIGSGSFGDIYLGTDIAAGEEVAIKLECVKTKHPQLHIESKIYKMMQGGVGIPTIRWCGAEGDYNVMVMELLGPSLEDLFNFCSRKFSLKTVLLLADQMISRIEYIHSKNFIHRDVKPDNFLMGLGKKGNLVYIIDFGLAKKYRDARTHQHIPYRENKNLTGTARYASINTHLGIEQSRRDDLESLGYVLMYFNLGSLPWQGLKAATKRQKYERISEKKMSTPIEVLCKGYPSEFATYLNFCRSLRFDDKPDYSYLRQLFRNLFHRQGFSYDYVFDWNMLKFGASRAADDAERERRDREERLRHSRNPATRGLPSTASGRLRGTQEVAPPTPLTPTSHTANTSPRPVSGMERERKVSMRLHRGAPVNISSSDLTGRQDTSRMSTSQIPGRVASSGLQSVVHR
Test Readout: IC50 (nM)

Mol Smiles	Units Label	IC50
Cc1cccc(-c2[nH]cnc2-c2ccc3c(c2)COC3)n1	nM	110

(P) O=C(Nc1cn2nc(-c3c(-c4ccc(F)cc4)nn4c3CCCC4)ccc2n1)c1ccnc(F)c1
(Q) Cc1cc(C)n(CCC(=O)Nc2cn3nc(-c4c(-c5ccc(F)cc5)nc5ccccn45)ccc3n2)n1
Query: For the pair P and Q , which entry has the numerically smaller recorded IC50? Answer by stating the label of the chosen item.
Result: P
(P: 0.4 nM, Q: 1.67 nM)

(A) O=C(Nc1cn2nc(-c3c(-c4ccc(F)cc4)ncn3CCN3CCOCC3)ccc2n1)c1ccnc(F)c1
(B) O=C(Nc1cn2nc(-c3c(-c4ccc(F)cc4)nn4c3CN(S(=O)(=O)C3CC3)CC4)ccc2n1)c1ccnc(F)c1
(C) CC(C)C(=O)N1CCn2nc(-c3ccc(F)cc3)c(-c3ccc4nc(NC(=O)c5ccnc(F)c5)cn4n3)c2C1
(D) Cc1nc(-c2ccc(F)cc2)c(-c2ccc3nc(NC(=O)C(=O)c4ccccc4)cn3n2)n1C
Query: Please give the order of these compounds when sorted by IC50, largest value leading. Dear reader, please state the labels in the requested order.
Result: D, C, A, B

(A) Cn1nc(-c2ccc(F)cc2)c(-c2ccc3nc(NC(=O)c4ccncc4)cn3n2)c1-c1ccncc1
(B) Cn1nc(-c2ccc(F)cc2)c(-c2ccc3nc(NC(=O)c4ccnc(F)c4)cn3n2)c1C1CCNCC1
Query: Pick one: A or B . Which one has the lower reported IC50? Answer by stating the label of the chosen item.
Result: A

(1) COCCn1cnc(-c2ccc(F)cc2)c1-c1ccc2nc(NC(=O)C(C)(C)C)cn2n1
(2) O=C(Nc1cn2nc(-c3c(-c4ccc(F)cc4)nc4ccccn34)ccc2n1)c1ccccc1
Query: Which shows the larger IC50 value: 1 or 2 ? State the label of the item chosen.
Result: 2

###

// read-out pIC50, gathered for CK1δ (Homo sapiens (Human), UniProt P48730) from published studies
pIC50: −log10 of the molar value.
Test Readout: pIC50

Record excerpt, results attached:
Mol Smiles	pIC50
Cc1nc(-c2ccc(F)cc2)c(-c2ccc3nc(NC(=O)c4cnc(-c5ccncc5)s4)cn3n2)n1C	8.14
O=C(Nc1cn2nc(-c3c(-c4ccc(F)cc4)nc4ccccn34)ccc2n1)C1CC1	8.42

(A) O=C(Nc1cn2nc(-c3c(-c4ccc(F)cc4)ncn3C3CCN(C(=O)CC(F)(F)F)CC3)ccc2n1)c1ccnc(N2CCOCC2)c1
(B) O=C(Nc1cn2nc(-c3c(-c4ccccc4F)ncn3CC(F)F)ccc2n1)c1ccnc(F)c1
Query: I'm curious whether A or B has the smaller pIC50 number. Which is it? Answer format: the label of the selected item.
Result: B

(I) CCCn1cnc(-c2ccc(F)cc2)c1-c1ccc2nc(NC(=O)c3ccnc(F)c3)cn2n1
(II) O=C(Nc1cn2nc(-c3c(-c4ccc(F)cc4)nc(C4CC4)n3C3CCN(S(=O)(=O)C4CC4)CC3)ccc2n1)c1ccnc(F)c1
(III) N#CC1(C(=O)N2CCC(n3cnc(-c4ccc(F)cc4)c3-c3ccc4nc(NC(=O)c5ccnc(F)c5)cn4n3)CC2)CC1
(IV) Cc1nc(-c2ccc(F)cc2)c(-c2ccc3nc(NC(=O)N4CCCC4)cn3n2)n1C
(V) Cn1cc(-c2ccc3nc(NC(=O)c4ccc(F)cc4)cn3n2)c(-c2ccc(F)cc2)n1
Query: Put the items in order so that reported pIC50 rises from first to last. Respond with the label ranking, as requested.
Result: IV, V, II, I, III
(IV: 7.24, V: 8.14, II: 8.43, I: 9.32, III: 9.76)

(P) O=C(Nc1cn2nc(-c3c(-c4ccc(F)cc4)nn4c3CCCC4)ccc2n1)c1cc(F)nc(F)c1
(Q) Cc1nc(-c2ccc(F)cc2)c(-c2ccc3nc(NC(=O)c4ccnnc4)cn3n2)n1C
Query: From the items above, decide which of P and Q has the lower pIC50 reading. Returns: label corresponding to the selected item.
Result: Q

###

Compiled from multiple publications: IC50 readings for CK1δ (Homo sapiens (Human)).
Test Readout: IC50 (nM)

Some solved entries appear below for comparison.
Compound	Test Readout	Test Result
O=C(Nc1cn2nc(-c3c(-c4ccc(F)cc4)ncn3C3CCN(Cc4ccncc4)CC3)ccc2n1)c1ccnc(F)c1	IC50	0.295
Cn1nc(-c2ccc(F)cc2)c(-c2ccc3nc(NC(=O)c4ccnc(F)c4)cn3n2)c1C1CCN(C[C@@H](O)C(F)(F)F)CC1	IC50	0.2
O=C(Nc1cn2nc(-c3c(-c4ccc(F)cc4)nn4c3COCC4)ccc2n1)c1cc(F)nc(F)c1	IC50	0.3

(a) O=C(Nc1cn2nc(-c3c(-c4ccc(F)cc4)nc4n3CCC4)ccc2n1)c1cccc(-c2cccnc2)c1
(b) Cn1cc(-c2ccc3nc(NC(=O)c4ccc(OCC(F)(F)F)nc4)cn3n2)c(-c2ccc(F)cc2)n1
Query: Which is greater in IC50, the first item a or the second item b ? Your choice should be expressed through its label.
Result: b
(b: 4.4 nM, a: 0.4 nM)

###

Field IC50: reported value for CK1δ (Homo sapiens (Human), UniProt P48730); entries drawn from several documents.
Test Readout: IC50 (pM)

# example entries with known answers
Mol Smiles	Assay Target	Test Result
Cc1nc(-c2ccc(F)cc2)c(-c2ccc3nc(NC(=O)c4snnc4-c4ccccc4)cn3n2)n1C	CK1δ (Homo sapiens (Human), UniProt P48730)	400
Cn1nc(-c2ccc(F)cc2)c(-c2ccc3nc(NC(=O)c4ccnc(N5CCOCC5)c4)cn3n2)c1N1CCN(CCCF)CC1	CK1δ (Homo sapiens (Human), UniProt P48730)	1400
Cc1nc(-c2cccnc2)sc1C(=O)Nc1cn2nc(-c3c(-c4ccc(F)cc4)ncn3C3CN(CCO)C3)ccc2n1	CK1δ (Homo sapiens (Human), UniProt P48730)	451
O=C(Nc1cn2nc(-c3c(-c4ccc(F)cc4)nc4ccccn34)ccc2n1)c1cncc(Cl)c1	CK1δ (Homo sapiens (Human), UniProt P48730)	1210
Cc1nc(-c2ccc(F)cc2)c(-c2ccc3nc(NC(=O)c4ccc5cccnc5c4)cn3n2)n1C	CK1δ (Homo sapiens (Human), UniProt P48730)	271
Cc1c[nH]c(C(=O)Nc2cn3nc(-c4c(-c5ccc(F)cc5)nc(C)n4C)ccc3n2)c1	CK1δ (Homo sapiens (Human), UniProt P48730)	368
O=C(Nc1cn2nc(-c3c(-c4ccc(Cl)cc4)ncn3CC(F)F)ccc2n1)c1ccnc(F)c1	CK1δ (Homo sapiens (Human), UniProt P48730)	204
O=C(Nc1cn2nc(-c3c(-c4ccc(F)cc4)noc3C3CCOCC3)ccc2n1)c1ccnc(-c2cccnc2)c1	CK1δ (Homo sapiens (Human), UniProt P48730)	2500
Cc1nccn1CCCn1cnc(-c2ccc(F)cc2)c1-c1ccc2nc(NC(=O)c3ccnc(F)c3)cn2n1	CK1δ (Homo sapiens (Human), UniProt P48730)	897
O=C(Nc1cn2nc(-c3c(-c4ccc(F)cc4)nc4ccccn34)ccc2n1)c1cccc(-c2cncnc2)c1	CK1δ (Homo sapiens (Human), UniProt P48730)	2040

(P) Cc1nc(-c2ccc(F)cc2)c(-c2ccc3nc(NC(=O)c4ccnc(F)c4)cn3n2)n1C
(Q) O=C(Nc1cn2nc(-c3c(-c4ccc(F)cc4)ncn3C3CCN(C(=O)c4ccncc4)CC3)ccc2n1)c1ccnc(F)c1
Query: Please indicate which entry, P or Q , has the lower recorded IC50 value. Label of pick, please.
Result: Q
(Q: 130 pM, P: 274 pM)
